System: P-gp (MDR1)
test.method.notes: MDR1-MDCK Efflux Ratio Assay
Assay type: in vitro ADME
measurement.parameters: dog, MDR1-MDCK cells, pH 7.4, read-out: MDR1-MDCK Efflux Ratio (B-A/A-B)
The compounds listed here are annotated with their efflux ratio at 2 h.

compound: COc1cc2c(cn1)[C@@]1(C[C@H](C)N(Cc3sc(NC(C)=O)nc3F)C1)OC2 (single isomer, unassigned) [Example 75-b]
target.of.assay: P-gp (MDR1)
efflux ratio at 2 h: 5.4

compound: COc1cc2c(cn1)[C@]1(C[C@H](C)N(Cc3sc(NC(C)=O)nc3F)C1)OC2 (single isomer, unassigned) [Example 75-a]
target.of.assay: P-gp (MDR1)
efflux ratio at 2 h: 7.8

* * *

target.of.assay: Recombinant full length human OGA enzyme (Homo sapiens (Human), UniProt O60502)
Sequence (O60502 whole entry): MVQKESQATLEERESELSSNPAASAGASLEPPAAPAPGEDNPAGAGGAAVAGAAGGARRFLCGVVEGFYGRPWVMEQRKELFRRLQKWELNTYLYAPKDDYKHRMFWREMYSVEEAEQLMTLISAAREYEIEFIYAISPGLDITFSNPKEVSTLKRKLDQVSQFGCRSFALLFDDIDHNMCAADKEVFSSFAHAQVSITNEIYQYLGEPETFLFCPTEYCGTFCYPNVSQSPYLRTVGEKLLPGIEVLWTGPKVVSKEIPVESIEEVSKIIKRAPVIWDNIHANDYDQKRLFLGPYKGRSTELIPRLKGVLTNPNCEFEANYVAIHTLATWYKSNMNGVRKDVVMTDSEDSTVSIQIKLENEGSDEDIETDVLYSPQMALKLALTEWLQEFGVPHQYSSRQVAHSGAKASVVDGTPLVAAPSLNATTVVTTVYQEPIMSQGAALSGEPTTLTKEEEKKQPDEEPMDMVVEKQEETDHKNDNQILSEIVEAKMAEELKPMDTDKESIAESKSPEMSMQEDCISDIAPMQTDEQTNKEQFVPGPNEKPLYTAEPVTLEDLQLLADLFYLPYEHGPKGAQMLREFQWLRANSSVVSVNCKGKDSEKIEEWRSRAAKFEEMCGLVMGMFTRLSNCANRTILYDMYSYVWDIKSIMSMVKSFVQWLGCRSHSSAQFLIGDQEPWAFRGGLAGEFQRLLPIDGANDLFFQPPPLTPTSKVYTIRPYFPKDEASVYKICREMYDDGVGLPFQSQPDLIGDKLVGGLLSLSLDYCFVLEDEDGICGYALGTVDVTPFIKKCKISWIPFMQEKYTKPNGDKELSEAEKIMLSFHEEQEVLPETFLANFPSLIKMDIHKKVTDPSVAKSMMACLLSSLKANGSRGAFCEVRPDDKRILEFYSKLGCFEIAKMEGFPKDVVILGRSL
test.method.notes: OGA Enzyme Inhibition Biochemical Assay
measurement.parameters: 1 nM OGA, 100 μM 4-MUGlcNAc, 90 minutes, pH 6.4
pIC50: −log10 of the molar value.

compound: CC(=O)Nc1nc(F)c(CN2CCCC3(C2)OCc2cncnc23)s1 (stereo not shown)
qualifier.symbol: =
pIC50: 7.68
//
compound: CC(=O)Nc1nc(F)c(CN2C[C@@]3(Cc4cc(Cl)ncc4O3)C[C@@H]2C)s1
qualifier.symbol: =
pIC50: 9.00
//
compound: COc1cc2c(cn1)O[C@]1(C2)C[C@H](C)N(Cc2sc(NC(C)=O)nc2F)C1
qualifier.symbol: >
pIC50: 9.00
//
compound: CC(=O)Nc1nc(F)c(CN2CCCC3(C2)OCc2ccccc23)s1 (stereo not shown)
qualifier.symbol: =
pIC50: 7.77
//
compound: CC(=O)Nc1nc(F)c(CN2CC3(Cc4nc(O)cnc4O3)C[C@@H]2C)s1 (stereo partly shown)
qualifier.symbol: =
pIC50: 7.04
//
compound: CC(=O)Nc1nc(F)c(CN2CCC3(Cc4cnccc4O3)C2)s1 (stereo not shown)
qualifier.symbol: =
pIC50: 7.46
//
compound: CC(=O)Nc1ncc(CN2C[C@@]3(C[C@@H]2C)OCc2cnccc23)s1 (single isomer, unassigned)
qualifier.symbol: =
pIC50: 7.62
//
compound: CC(=O)Nc1ncc(CN2CCCC3(C2)OCc2cnccc23)s1 (stereo not shown)
qualifier.symbol: =
pIC50: 8.22
//
compound: CC(=O)Nc1ncc(CN2C[C@@]3(Cc4cc(N5CCN(C)CC5)ncc4O3)C[C@@H]2C)s1
qualifier.symbol: >
pIC50: 9.00
//
compound: CC(=O)Nc1nc(F)c(CN2C[C@@]3(Cc4cc(N5CCN(C)CC5)ncc4O3)C[C@@H]2C)s1
qualifier.symbol: >
pIC50: 9.00
//
compound: CC(=O)Nc1ncc(CN2CCC3(Cc4ccccc4O3)C2)s1 (stereo not shown)
qualifier.symbol: =
pIC50: 6.48
//
compound: CC(=O)Nc1ncc(CN2CC3(C[C@@H]2C)OCc2ncccc23)s1 (stereo partly shown)
qualifier.symbol: =
pIC50: 7.31
//
compound: CC(=O)Nc1ncc(CN2CCCC3(C2)OCc2c3cc[nH]c2=O)s1 (stereo not shown)
qualifier.symbol: =
pIC50: 7.46
//
compound: CC(=O)Nc1nc(F)c(CN2CCCC3(C2)OCc2c3ccnc2Cl)s1 (racemic)
qualifier.symbol: =
pIC50: 8.23
//
compound: COc1cc2c(cn1)[C@@]1(C[C@H](C)N(Cc3cnc(NC(C)=O)s3)C1)OC2 (single isomer, unassigned)
qualifier.symbol: =
pIC50: 6.80
//
compound: CC(=O)Nc1nc(F)c(CN2CC3(C[C@@H]2C)OCc2cccnc23)s1 (stereo partly shown)
qualifier.symbol: =
pIC50: 7.89

* * *

test.method.notes: Rat Liver Microsome Stability Assay
measurement.parameters: rat liver microsomes 0.5 mg/mL, compound 1 μM; Qh 55 mL/minute/kg

compound: CC(=O)Nc1ncc(CN2C[C@@]3(Cc4cc(N5C[C@@H](C)O[C@@H](C)C5)ncc4O3)C[C@@H]2C)s1 [Example 38]
RLM % Qh (%): 42%
--
compound: CC(=O)Nc1ncc(CN2C[C@@]3(Cc4cc(N5CCC5)ncc4O3)C[C@@H]2C)s1 [Example 35]
RLM % Qh (%): 50%
--
compound: COCCOc1cc2c(cn1)O[C@]1(C2)C[C@H](C)N(Cc2sc(NC(C)=O)nc2F)C1 [Example 47]
RLM % Qh (%): 53%
--
compound: CC(=O)Nc1ncc(CN2C[C@@]3(Cc4cc(C(F)(F)F)ncc4O3)C[C@@H]2C)s1 [Example 22]
RLM % Qh (%): 39%
--
compound: CC(=O)Nc1nc(F)c(CN2CCCC3(C2)OCc2c3cc[nH]c2=O)s1 (stereo not shown) [Example 86]
RLM % Qh (%): 37%
--
compound: COc1cc2c(cn1)[C@]1(C[C@H](C)N(Cc3cnc(NC(C)=O)s3)C1)OC2 (single isomer, unassigned) [Example 76-a]
RLM % Qh (%): 58%
--
compound: CC(=O)Nc1nc(F)c(CN2CCC3(Cc4cnc(Cl)cc4O3)C2)s1 (stereo not shown) [Example 7]
RLM % Qh (%): 46%
--
compound: CNc1cc2c(cn1)O[C@]1(C2)C[C@H](C)N(Cc2sc(NC(C)=O)nc2F)C1 [Example 29]
RLM % Qh (%): 55%
--
compound: CC(=O)Nc1ncc(CN2C[C@@]3(Cc4cc(N5C[C@H](C)O[C@@H](C)C5)ncc4O3)C[C@@H]2C)s1 [Example 42]
RLM % Qh (%): 66%
--
compound: CC(=O)Nc1nc(F)c(CN2C[C@@]3(Cc4cc(N5C[C@@H](C)O[C@@H](C)C5)ncc4O3)C[C@@H]2C)s1 [Example 39]
RLM % Qh (%): 52%
--
compound: CC(=O)Nc1nc(F)c(CN2C[C@@]3(Cc4cc(N5CCOCC5)ncc4O3)C[C@@H]2C)s1 [Example 36]
RLM % Qh (%): 51%
--
compound: CC(=O)Nc1ncc(CN2CC3(C[C@@H]2C)OCc2ccccc23)s1 (stereo partly shown) [Example 59]
RLM % Qh (%): 94%
--
compound: CC(=O)Nc1nc(F)c(CN2CCCC3(COc4ccccc43)C2)s1 (stereo not shown) [Example 54]
RLM % Qh (%): 94%
--
compound: CC(=O)Nc1nc(F)c(CN2CC3(C[C@@H]2C)OCc2cccnc23)s1 (stereo partly shown) [Example 63]
RLM % Qh (%): 78%
--
compound: COc1cc2c(cn1)[C@@]1(C[C@H](C)N(Cc3cnc(NC(C)=O)s3)C1)OC2 (single isomer, unassigned) [Example 76-b]
RLM % Qh (%): 89%
--
compound: COc1cccc2c1OC1(CCN(Cc3sc(NC(C)=O)nc3F)C1)C2 (stereo not shown) [Example 4]
RLM % Qh (%): 78%

* * *

target.of.assay: UniProt O60502
test.method.notes: Cellular OGA-Tau MSD Assay
measurement.parameters: HEK-293T cells transfected with OGT and Tau-V5; Tau-S400-GlcNAc MSD readout
observable: IC50

compound: CC(=O)Nc1nc(F)c(CN2CCC3(Cc4cnccc4O3)C2)s1 (stereo not shown) [Example 12]
value.measured: 93 nM
//
compound: COc1cc2c(cn1)O[C@]1(C2)C[C@H](C)N(Cc2cnc(NC(C)=O)s2)C1 [Example 17]
value.measured: 8 nM
//
compound: CC(=O)Nc1ncc(CN2CC3(CCC2C)OCc2ccccc23)s1 (stereo not shown) [Example 60]
value.measured: > 1000 nM
//
compound: CC(=O)Nc1nc(F)c(CN2CCCC3(COc4ccccc43)C2)s1 (stereo not shown) [Example 54]
value.measured: > 1000 nM
//
compound: CC(=O)Nc1ncc(CN2CCCC3(C2)OCc2cnccc23)s1 (stereo not shown) [Example 68]
value.measured: 18 nM
//
compound: CC(=O)Nc1ncc(CN2C[C@@]3(Cc4cc(N5C[C@@H](C)O[C@H](C)C5)ncc4O3)C[C@@H]2C)s1 [Example 40]
value.measured: 14 nM
//
compound: CC(=O)Nc1nc(F)c(CN2C[C@@]3(Cc4cc(N5C[C@@H](C)O[C@H](C)C5)ncc4O3)C[C@@H]2C)s1 [Example 41]
value.measured: 8 nM
//
compound: CC(=O)Nc1ncc(CN2CCCC3(C2)OCc2c3ccnc2Cl)s1 (stereo not shown) [Example 85]
value.measured: 17 nM
//
compound: CC(=O)Nc1nc(F)c(CN2C[C@@]3(Cc4cc(N5CCC5)ncc4O3)C[C@@H]2C)s1 [Example 34]
value.measured: 1 nM
//
compound: CC(=O)Nc1nc(F)c(CN2C[C@@]3(Cc4cc(=O)n(C)cc4O3)C[C@@H]2C)s1 [Example 48]
value.measured: 34 nM
//
compound: COc1nccc2c1COC21CCCN(Cc2sc(NC(C)=O)nc2F)C1 (stereo not shown) [Example 81]
value.measured: 15.1 nM
//
compound: CC(=O)Nc1nc(F)c(CN2C[C@@]3(Cc4cc(Cl)ncc4O3)C[C@@H]2C)s1 [Example 10]
value.measured: 8 nM
//
compound: CC(=O)Nc1nc(F)c(CN2CCC[C@@]3(C2)OCc2c3ccnc2Cl)s1 [Example 84-a]
value.measured: 8.5 nM
//
compound: CC(=O)Nc1nc(F)c(CN2CCC[C@]3(C2)OCc2cnccc23)s1 (single isomer, unassigned) [Example 70-b]
value.measured: > 1000 nM
//
compound: COc1cccc2c1OC1(CCN(Cc3sc(NC(C)=O)nc3F)C1)C2 (stereo not shown) [Example 4]
value.measured: > 1000 nM
//
compound: CC(=O)Nc1nc(F)c(CN2C[C@@]3(Cc4ccccc4O3)C[C@@H]2C)s1 [Example 1]
value.measured: 865 nM
//
compound: CC(=O)Nc1nc(F)c(CN2C[C@@]3(Cc4ncccc4O3)C[C@@H]2C)s1 (single isomer, unassigned) [Example 19-a]
value.measured: 5 nM
//
compound: CNc1cc2c(cn1)O[C@]1(C2)C[C@H](C)N(Cc2sc(NC(C)=O)nc2F)C1 [Example 29]
value.measured: 3 nM
//
compound: COCCN(C)c1cc2c(cn1)O[C@]1(C2)C[C@H](C)N(Cc2sc(NC(C)=O)nc2F)C1 [Example 33]
value.measured: 2 nM
